assay: probe aCHRDL2 binding to arrayed compounds – biochemical, biotinylated probe, 635/667 nm fluorescence, primary screen (AID 1100); conditions: small-molecule microarray, higher = more signal
Reported metric: composite z-score
One number for each entry.

- Compound: "CCOC(=O)C1=CC[C@@H](c2ccc(OC)cc2)N(S(=O)(=O)c2ccc(C)cc2)[C@H]1c1ccc(C)cc1"
  composite z-score: 0.836
- Compound: "C=CC[C@@]1(C(=O)N(C)C)N=C(c2ccc(OCCCO)cc2)O[C@@H]1c1ccccc1CN=[N+]=[N-]"
  composite z-score: 1.13
- Compound: "O=C(NCC(O)CO)[C@@]1(CCS(=O)(=O)c2ccccc2)N=C(c2ccc(OCCCO)cc2)O[C@H]1c1ccccc1 (stereo partly specified)"
  composite z-score: 0.985
- Compound: "O=C1O[C@H](c2ccccc2)[C@H](c2ccccc2)N2[C@H]1[C@@H](C(=O)N1CCN(c3ncccn3)CC1)[C@]1(C(=O)Nc3ccc(C#CCCO)cc31)[C@H]2c1ccc(O)cc1"
  composite z-score: 0.422
- Compound: "CC(C)(C)N1CC=CC23O[C@@H]4/C=C\\CCCOC(=O)C4[C@H]2C(=O)N(CCCO)[C@@H]3C1=O (stereo partly specified)"
  composite z-score: -0.006
- Compound: "COc1ccccc1CN1C(=O)c2ccccc2[C@](Cc2ccccc2I)(C(=O)NCC(C)C)[C@@H]1c1ccc(CO)cc1"
  composite z-score: 1.01
- Compound: "COC(=O)[C@@]1(Cc2ccc(OC)cc2)[C@H]2c3cc(C(=O)N4CCCC4)n(Cc4c(CO)[nH]cc(C)c4=O)c3C[C@H]2CN1C(=O)c1ccccc1"
  composite z-score: 1.13
- Compound: "COC(=O)C(CC#Cc1ccc2c(c1)[C@]1(C(=O)N2)[C@H](c2ccccc2OCCO)N2[C@H](c3ccccc3)[C@H](c3ccccc3)OC(=O)[C@H]2[C@@H]1C(=O)N1CCc2cc(OC)c(OC)cc2C1)C(=O)OC"
  composite z-score: 0.048
- Compound: "CO[C@H]1O[C@H](CO)[C@@H](OC(=O)Nc2ccccc2-c2ccccc2)[C@H](OC(=O)Nc2ccccc2)[C@H]1OC(=O)Nc1ccccc1"
  composite z-score: 0.886
- Compound: "NC(=O)N1C(=O)C2C(C1=O)C1C=C(CCCO)C2C(c2ccc(CN3CCCC3)cc2)N1Cc1sc2ccccc2c1Cl (stereo unspecified)"
  composite z-score: 0.233

Hey, can you go through the list below and give me composite z-score for every item?
1. COCCn1c(C(=O)N(C)C)cc2c1C[C@H]1CN(C(=O)c3ccccc3)[C@@](Cc3ccc(OC)cc3)(C(=O)OC)[C@@H]21
2. CC(C)C[C@H]1NC(=O)C([C@@H](C)OCc2ccccc2)NC(=O)[C@@]23C(=O)N[C@@H](Cc4ccccc4)C2[C@H](C)[C@@]2(C)O[C@H]2C3/C=C/C/C=C\CNC1=O (stereo partly specified)
3. Cc1ccc(N2C(=O)c3ccccc3[C@](C)(C(=O)NCCCN(C)C)[C@@H]2c2ccc(CO)cc2)nc1
4. C=CCNC(=O)[C@H]1[C@@H]2C(=O)O[C@@H](c3ccccc3)[C@@H](c3ccccc3)N2[C@@H](c2ccc(OCCO)cc2)[C@]12C(=O)Nc1ccc(C#CC3(O)CCCCCC3)cc12
5. CC(C)C(CO)N1C(=O)[C@@H]2C3C(=O)OCCC/C=C\[C@H]3OC23C=CCN(Cc2ccccc2)C(=O)[C@@H]13 (stereo partly specified)
6. CCOC(=O)C[C@H]1[C@H](OC(=O)Cc2ccc3c(c2)OCO3)[C@@H](NC(=O)c2ccc3ccccc3n2)c2cc(OCCCO)ccc2N1C(=O)Cc1ccc(OC)cc1
7. COc1ccc(C(=O)Nc2ccc3c(c2)[C@@]2(O[C@H](CCO)[C@@H]([Si](C)(C)c4ccc(OC)cc4)[C@@H]2C)C(=O)N3Cc2ccccc2)cc1

1. 1.34
2. -0.493
3. 0.451
4. 0.446
5. 0.554
6. 0.195
7. 0.546

Consider the following items and state reported composite z-score for each.
1. O=C1O[C@@H](c2ccccc2)[C@@H](c2ccccc2)N2[C@@H](c3ccc(OCCO)cc3)[C@]3(C(=O)Nc4ccc(C#CC5(O)CCCCCC5)cc43)[C@@H](C(=O)O)[C@H]12
2. COc1ccc(C(O)C2C=CC3C(=O)N(c4ccccc4)C(=O)C3N2Nc2ccc([N+](=O)[O-])cc2)c2ccccc12 (stereo unspecified)
3. NC(=O)NCC#Cc1ccc2c(c1)[C@]1(C(=O)N2)[C@H](c2ccc(OCCO)cc2)N2[C@H](c3ccccc3)[C@H](c3ccccc3)OC(=O)[C@H]2[C@@H]1C(=O)O
4. CN1C(=O)C2C(C1=O)C1C=C(CCCO)C2C(C2CC2)N1Cc1cccc(OC(F)(F)F)c1 (stereo unspecified)
5. COC(=O)C(CC#Cc1ccc2c(c1)[C@]1(C(=O)N2)[C@H](c2ccc(OCCO)cc2)N2[C@H](c3ccccc3)[C@H](c3ccccc3)OC(=O)[C@H]2[C@@H]1C(=O)N1CCCCCCC1)C(=O)OC
6. CN(C)CCCC[C@@H]1NC(=O)[C@H]2C[C@@H](C(=O)O)[C@@H](c3ccc(O)cc3)N2C1=O

1. 0.457
2. 0.88
3. 0.654
4. 0.512
5. 1.3
6. 1.64

----------
assay: probe aNOTCH2 binding on compound microarray – biochemical, small-molecule microarray, 635/667 nm fluorescence, primary screen (AID 1121); conditions: higher = more signal;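 also: score merges feature fluorescence read at 667 nm with its signal to noise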
Reported metric: composite z-score
Numbers only.

- Compound: "CCOc1cc(C(O)C2C=CC3C(=O)N(c4ccccc4)C(=O)C3N2Nc2ccccc2F)ccc1O (stereo not drawn)"
  composite z-score: 0.433
- Compound: "CC(C)OC(=O)CC(=O)CC(O)c1cccc([N+](=O)[O-])c1 (stereo not drawn)"
  composite z-score: -0.177
- Compound: "C=CCOC(=O)[C@H]1[C@@H]2C(=O)O[C@@H](c3ccccc3)[C@@H](c3ccccc3)N2[C@@H](c2ccc(OCCOC(=O)[C@@H]3C[C@@H]4C(=O)N[C@@H](CCCCNC(C)=O)C(=O)N4[C@@H]3c3cccc(OCCO)c3)cc2)[C@]12C(=O)Nc1ccccc12"
  composite z-score: -0.0704

For the 8 compounds below, give their composite z-score values.
1. COC(=O)[C@@]1(Cc2ccc(OC)cc2)[C@H]2c3cc(C(=O)N4CCCC4)n(CCn4cc([N+](=O)[O-])nc4C)c3C[C@H]2CN1C(=O)c1ccccc1
2. O=C(NC1CC1)[C@@H]1c2ccccc2C(=O)N(Cc2cc(C(F)(F)F)cc(C(F)(F)F)c2)[C@H]1c1ccc(CO)cc1
3. O=C(NC1CC1)[C@@H]1c2ccccc2C(=O)N(Cc2ccc(OC(F)(F)F)cc2)[C@H]1c1ccc(CO)cc1
4. [N-]=[N+]=Nc1ccccc1C[C@]1(C(=O)N2CCOCC2)N=C(c2ccc(OCCCO)cc2)O[C@H]1c1ccccc1N=[N+]=[N-]
5. O=C1O[C@H](c2ccccc2)[C@H](c2ccccc2)N2[C@H]1[C@@H](C(=O)N1CCN(c3ncccn3)CC1)[C@]1(C(=O)Nc3ccc(C#CCCO)cc31)[C@H]2c1ccc(O)cc1
6. CCCCCC1=C2CNC(CC(C)C)(C(=O)OC)C=C2C(C)C1=O (stereo not drawn)
7. C[C@@H]1ON(c2ccccc2)[C@H](c2ccccc2)[C@H]1C(=O)O
8. C=CCOC(=O)[C@@H]1[C@H]2C(=O)O[C@H](c3ccccc3)[C@H](c3ccccc3)N2[C@H](c2ccc(OCCOC(=O)[C@H]3C[C@H]4C(=O)N5CCC[C@H]5C(=O)N4[C@H]3c3cccc(OCCO)c3)cc2)[C@@]12C(=O)Nc1ccc(I)cc12

1. 1
2. -0.102
3. -0.0974
4. -0.14
5. -0.11
6. 0.0453
7. -0.0846
8. -0.0228

For each listed entry, give its composite z-score.
1. C=CCOC(=O)[C@H]1[C@@H]2C(=O)O[C@@H](c3ccccc3)[C@@H](c3ccccc3)N2[C@@H](c2ccc(OCCOC(=O)[C@H]3C[C@H]4C(=O)N[C@@H](CC(C)C)C(=O)N4[C@H]3c3ccc(O)cc3)cc2)[C@]12C(=O)Nc1ccccc12
2. CCCNC(=O)[C@@]1(c2ccc([N+](=O)[O-])cc2)CC(=O)N(C(C)C)[C@@H]1c1ccc(CO)cc1

1: -0.0666; 2: -0.0876

----------
assay: calcein-AM signal in unstimulated myeloma cells – cell-based, calcein-AM fluorescence, 48 h, PK04 Diversity Set, profiling panel (AID 1166); conditions: RPMI8226 myeloma viability, higher = more signal;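 also: cells grown under basal conditions without added stimulus; test concentration not given here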
Record form. Attribute: z-score. Fill in for each entry.
Answers are plain numbers.

- Compound: "O=C1C[C@@](C(=O)NCc2ccccc2)(c2ccc([N+](=O)[O-])cc2)[C@@H](c2ccc(CO)cc2)N1C1CCCCC1"
  z-score: 0.956
- Compound: "CC(C)C(CO)N1C(=O)[C@@H]2C3C(=O)OCCC/C=C\\[C@H]3OC23C=CCN(Cc2ccccc2)C(=O)[C@@H]13 (some centres undefined)"
  z-score: -0.0976
- Compound: "CC(C)(C)OC(=O)CC[C@]1(C(=O)NCC(O)CO)N=C(c2ccc(OCCCO)cc2)O[C@H]1c1ccccc1N=[N+]=[N-] (some centres undefined)"
  z-score: -0.198

// below: z-score requested for another compound
Need z-score of CCCC=C(CCC)[C@@H](NC(=O)c1ccc(C(F)(F)F)cc1)c1ccc(C(F)(F)F)cc1 , thanks.
-3.65
